Test system: MEL-28
Test: Inhibition of cell growth by counting cells, MEL-28
Assay type: cell-based, human
Conditions: Homo sapiens, SK-MEL-28, 72 h; three days of incubation; read-out: IC50 (molar) MEL-28
outcome.measure: IC50 (nM)
Answers are plain numbers, in nM.

List IC50 for every entry below, keeping the order given.
1. CCCOc1cc2c(cc1OC)[C@@]1(CS[C@@H]3c4c(OC(C)=O)c(C)c5c(c4[C@H](COC1=O)N1C3[C@H]3c4c(cc(C)c(OC)c4OCCC)C[C@@H]([C@@H]1C#N)N3C)OCO5)NCC2 (some centres unmarked)
2. C=CCOc1cc2c(cc1OC)[C@@]1(CS[C@@H]3c4c(OC(C)=O)c(C)c5c(c4[C@H](COC1=O)N1C3[C@H]3c4c(cc(C)c(OC)c4O)C[C@@H]([C@@H]1O)N3C)OCO5)NCC2 (some centres unmarked)
3. CCCOc1cc2c(cc1OC)[C@@]1(CS[C@@H]3c4c(OC(C)=O)c(C)c5c(c4[C@H](COC1=O)N1C3[C@H]3c4c(cc(C)c(OC)c4OCCC)C[C@@H]([C@@H]1O)N3C)OCO5)NCC2 (some centres unmarked)
4. CCCC(=O)Oc1cc2c(cc1OC)[C@@]1(CS[C@@H]3c4c(OC(C)=O)c(C)c5c(c4[C@H](COC1=O)N1C3[C@H]3c4c(cc(C)c(OC)c4O)C[C@@H]([C@@H]1O)N3C)OCO5)NCC2 (some centres unmarked)
5. COc1cc2c(cc1OCc1ccccc1)CCN[C@]21CS[C@@H]2c3c(OC(C)=O)c(C)c4c(c3[C@H](COC1=O)N1C2[C@H]2c3c(cc(C)c(OC)c3OCc3ccccc3)C[C@@H]([C@@H]1O)N2C)OCO4 (some centres unmarked)

## Output
1. 1170
2. 0.125
3. 591
4. 0.12
5. 106

* * *

Test system: HT-29
Assay: Inhibition of cells growth by colorimetric assay (SRB), HT-29
Type: cell-based
Details: HT-29; SRB, 48 hours exposure
Kindly state HT-29 TGI for each of the entries shown.
Numbers only.

List HT-29 TGI for every entry below, keeping the order given.
1. COc1cc2c(cc1O)CCN[C@]21CS[C@@H]2c3c(OC(=O)CCCC[C@@H]4SCC5NC(=O)NC54)c(C)c4c(c3[C@H](COC1=O)N1C2[C@H]2c3c(cc(C)c(OC)c3O)C[C@@H]([C@@H]1C#N)N2C)OCO4 (stereo partly drawn) [Compound 147]
2. COC1=C(C)C(=O)C2=C(C1=O)[C@@H]1C3[C@@H]4SC[C@]5(NCCc6cc(O)c(OC)cc65)C(=O)OC[C@@H](c5c6c(c(C)c(OC(C)=O)c54)OCO6)N3[C@@H](O)[C@H](C2)N1C (stereo partly drawn) [Compound 101]
3. CCCC(=O)Oc1c(C)c2c(c3c1[C@H]1SC[C@]4(NCCc5cc(O)c(OC)cc54)C(=O)OC[C@@H]3N3C1[C@H]1c4c(cc(C)c(OC)c4O)C[C@@H]([C@@H]3O)N1C)OCO2 (stereo partly drawn) [Compound 163]
4. COc1cc2c(cc1O)CCN[C@]21CS[C@@H]2c3c(OC(=O)C(F)(F)C(F)(F)C(F)(F)F)c(C)c4c(c3[C@H](COC1=O)N1C2[C@H]2c3c(cc(C)c(OC)c3O)C[C@@H]([C@@H]1C#N)N2C)OCO4 (stereo partly drawn) [Compound 143]
5. C=COC(=O)N1CCc2cc(O)c(OC)cc2[C@@]12CS[C@@H]1c3c(OC(C)=O)c(C)c4c(c3[C@H](COC2=O)N2C1[C@H]1c3c(cc(C)c(OC)c3O)C[C@@H]([C@@H]2O)N1C)OCO4 (stereo partly drawn) [Compound 95]

## Output
1.05E-07
1.03E-08
1.14E-09
1.08E-08
1.27E-07

* * *

Observed Toxicity Data Myelo values for Myelo are listed in what follows.
One number for each entry.

compound | target.desc | Toxicity Data Myelo
C=CCOC(=O)Oc1cc2c(cc1OC)[C@@]1(CS[C@@H]3c4c(OC(C)=O)c(C)c5c(c4[C@H](COC1=O)N1C3[C@H]3c4c(cc(C)c(OC)c4O)C[C@@H]([C@@H]1O)N3C)OCO5)NCC2 (some centres unmarked) | Myelo | 1.93E-08
COc1cc2c(cc1OC)[C@@]1(CS[C@@H]3c4c(OC(C)=O)c(C)c5c(c4[C@H](COC1=O)N1C3[C@H]3c4c(cc(C)c(OC)c4OC)C[C@@H]([C@@H]1O)N3C)OCO5)NCC2 (some centres unmarked) | Myelo | 2.44E-07

List Toxicity Data Myelo for every entry below, keeping the order given.
1. C=CCOC(=O)Oc1c(C)c2c(c3c1[C@H]1SC[C@]4(NCCc5cc(O)c(OC)cc54)C(=O)OC[C@@H]3N3C1[C@H]1c4c(cc(C)c(OC)c4O)C[C@@H]([C@@H]3O)N1C)OCO2 (some centres unmarked)
2. COc1cc2c(cc1OC)[C@@]1(CS[C@@H]3c4c(OC(C)=O)c(C)c5c(c4[C@H](COC1=O)N1C3[C@H]3c4c(cc(C)c(OC)c4O)C[C@@H]([C@@H]1O)N3C)OCO5)NCC2 (some centres unmarked)
3. COc1cc2c(cc1O)CCN(C)[C@]21CS[C@@H]2c3c(OC(C)=O)c(C)c4c(c3[C@H](COC1=O)N1C2[C@H]2c3c(cc(C)c(OC)c3O)C[C@@H]([C@@H]1O)N2C)OCO4 (some centres unmarked)

## Output
2.87E-08
3.27E-08
3.35E-09

* * *

Kindly state Toxicity Data Liver for each of the entries shown.
Tested on: Liver
Answers are plain numbers.

Example entries begin here.
compound | target.desc | Toxicity Data Liver
COc1cc2c(cc1OC(=O)OCc1ccccc1)CCN[C@]21CS[C@@H]2c3c(OC(C)=O)c(C)c4c(c3[C@H](COC1=O)N1C2[C@H]2c3c(cc(C)c(OC)c3O)C[C@@H]([C@@H]1O)N2C)OCO4 (stereo partly drawn) | Liver | 5.30E-09
CCOc1cc2c(cc1OC)[C@@]1(CS[C@@H]3c4c(OC(C)=O)c(C)c5c(c4[C@H](COC1=O)N1C3[C@H]3c4c(cc(C)c(OC)c4O)C[C@@H]([C@@H]1O)N3C)OCO5)NCC2 (stereo partly drawn) | Liver | 1.76E-08

## Input What does the data say about its Toxicity Data Liver? Entry: CCCC(=O)Oc1c(C)c2c(c3c1[C@H]1SC[C@]4(NCCc5cc(O)c(OC)cc54)C(=O)OC[C@@H]3N3C1[C@H]1c4c(cc(C)c(OC)c4O)C[C@@H]([C@@H]3O)N1C)OCO2 (stereo partly drawn)
## Output 9.80E-07

* * *

Tested on: Skeletal
Kindly state Toxicity Data Skeletal for each of the entries shown.
Answers are plain numbers.

Example entries begin here.
compound | Toxicity Data Skeletal
C=COC(=O)Oc1c(C)c2c(c3c1[C@H]1SC[C@]4(NCCc5cc(OC(=O)OC(C)(C)C)c(OC)cc54)C(=O)OC[C@@H]3N3C1[C@H]1c4c(cc(C)c(OC)c4O)C[C@@H]([C@@H]3O)N1C)OCO2 (stereo partly drawn) | 2.41E-08
COc1cc2c(cc1O)CCN(C)[C@]21CS[C@@H]2c3c(OC(C)=O)c(C)c4c(c3[C@H](COC1=O)N1C2[C@H]2c3c(cc(C)c(OC)c3O)C[C@@H]([C@@H]1O)N2C)OCO4 (stereo partly drawn) | 5.52E-10
C=COC(=O)Oc1cc2c(cc1OC)[C@@]1(CS[C@@H]3c4c(OC(C)=O)c(C)c5c(c4[C@H](COC1=O)N1C3[C@H]3c4c(cc(C)c(OC)c4OC(=O)OC=C)C[C@@H]([C@@H]1O)N3C)OCO5)N(C(=O)OC=C)CC2 (stereo partly drawn) | 9.71E-08
COc1cc2c(cc1O)CCN[C@]21CS[C@@H]2c3c(OC(=O)CCCCC4SCC5NC(=O)NC54)c(C)c4c(c3[C@H](COC1=O)N1C2[C@H]2c3c(cc(C)c(OC)c3O)C[C@@H]([C@@H]1O)N2C)OCO4 (stereo partly drawn) | 3.58E-08
COc1cc2c(cc1OC)[C@@]1(CS[C@@H]3c4c(OC(C)=O)c(C)c5c(c4[C@H](COC1=O)N1C3[C@H]3c4c(cc(C)c(OC)c4OC)C[C@@H]([C@@H]1O)N3C)OCO5)NCC2 (stereo partly drawn) | 2.00E-07

List Toxicity Data Skeletal for every entry below, keeping the order given.
1. CCCCCCCCCCCCCCCC(=O)Oc1c(C)c2c(c3c1[C@H]1SC[C@]4(NCCc5cc(O)c(OC)cc54)C(=O)OC[C@@H]3N3C1[C@H]1c4c(cc(C)c(OC)c4O)C[C@@H]([C@@H]3O)N1C)OCO2 (stereo partly drawn)
2. CCOc1cc2c(cc1OC)[C@@]1(CS[C@@H]3c4c(OC(C)=O)c(C)c5c(c4[C@H](COC1=O)N1C3[C@H]3c4c(cc(C)c(OC)c4O)C[C@@H]([C@@H]1O)N3C)OCO5)NCC2 (stereo partly drawn)
3. COc1cc2c(cc1OC(=O)CCc1ccccc1)CCN[C@]21CS[C@@H]2c3c(OC(C)=O)c(C)c4c(c3[C@H](COC1=O)N1C2[C@H]2c3c(cc(C)c(OC)c3O)C[C@@H]([C@@H]1O)N2C)OCO4 (stereo partly drawn)
4. COc1cc2c(cc1OC(=O)c1cc3ccccc3oc1=O)CCN[C@]21CS[C@@H]2c3c(OC(C)=O)c(C)c4c(c3[C@H](COC1=O)N1C2[C@H]2c3c(cc(C)c(OC)c3O)C[C@@H]([C@@H]1O)N2C)OCO4 (stereo partly drawn)

## Output
3.29E-07
1.27E-08
1.32E-08
2.15E-09
